- measurement target: G6PD Glucose-6-phosphate 1-dehydrogenase (Homo sapiens)
- Construct: isoTOP-ABPP experiments performed in cell lysates (in vitro); endogenous in cells; host or cells: MDA-MB-231 soluble lysate
- Sequence (P11413 whole entry): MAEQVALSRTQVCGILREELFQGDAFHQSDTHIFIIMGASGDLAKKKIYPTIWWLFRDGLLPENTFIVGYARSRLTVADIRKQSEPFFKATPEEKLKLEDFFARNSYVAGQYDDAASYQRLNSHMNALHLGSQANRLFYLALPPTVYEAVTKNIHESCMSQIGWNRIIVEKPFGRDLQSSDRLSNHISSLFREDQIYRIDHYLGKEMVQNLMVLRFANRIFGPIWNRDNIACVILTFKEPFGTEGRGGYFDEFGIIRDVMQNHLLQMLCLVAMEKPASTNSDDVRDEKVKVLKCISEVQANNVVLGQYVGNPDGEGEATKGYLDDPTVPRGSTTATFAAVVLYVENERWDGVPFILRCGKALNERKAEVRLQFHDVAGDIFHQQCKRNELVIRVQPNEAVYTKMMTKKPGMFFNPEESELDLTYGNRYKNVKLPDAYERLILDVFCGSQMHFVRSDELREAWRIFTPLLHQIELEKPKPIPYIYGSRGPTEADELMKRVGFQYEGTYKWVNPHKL
- measurement notes: competitive isoTOP-ABPP
- Format: binding
- assay setup: P11413_K171; 50 uM, 231 sol, in vitro
quantity name: R value (DMSO/fragment) for probe 1 labeling
# output: bare number, no unit

Problem: Item COc1cc(CCC(=O)Oc2c(F)c(F)c(F)c(F)c2F)cc(OC)c1OC [fragment 23] : provide R value (DMSO/fragment) for probe 1 labeling
Result: 2.1

Problem: Supply R value (DMSO/fragment) for probe 1 labeling value. Item: O=C(Oc1c(F)c(F)c(F)c(F)c1F)C(c1ccccc1)c1ccccc1 [fragment 20, Pentafluorophenyl 2,2-diphenylacetate]
Result: 0.7

Problem: Fill in R value (DMSO/fragment) for probe 1 labeling for record Cn1cc(CC(=O)Oc2c(F)c(F)c(F)c(F)c2F)c2ccccc21 [fragment 22]
Result: 0.7

Problem: Specify measured R value (DMSO/fragment) for probe 1 labeling for O=C(Oc1c(F)c(F)c(F)c(F)c1F)c1cc(C(F)(F)F)cc(C(F)(F)F)c1 [fragment 21] .
Result: 0.8

Problem: For the compound O=C(CCc1cn(-c2ccccc2)nc1-c1ccccc1)Oc1c(F)c(F)c(F)c(F)c1F [fragment 19] , give its reported R value (DMSO/fragment) for probe 1 labeling.
Result: 0.9
